# Tested on: UW228-3 cells
# Measurement notes: Clonogenic survival assay
# Format: cell-based
# Condition: Homo sapiens; UW228-3, 48 h post-treatment
Assay readout: pIC50
# pIC50 = -log10(concentration in molar units)

Could you tell me which pIC50 is on file for Cn1nnc2c(C(N)=O)ncn2c1=O [TMZ, temozolomide] ?
4.03

====

# Tested on: DAOY cells
# Measurement notes: Growth assay (cell counts)
# Assay type: cell-based
# Condition: Homo sapiens, 48 h, 2D normoxia
Assay readout: pIC50
# pIC50 = -log10(concentration in molar units)

Could you tell me which pIC50 is on file for Cn1nnc2c(C(N)=O)ncn2c1=O [TMZ, temozolomide] ?
3.61

====

# System: UW228-3 cells
# Measurement notes: Growth assay (cell counts)
# Assay type: cell-based
# Condition: Homo sapiens; UW228-3, 48 h, 2D normoxia
Assay readout: pIC50
# pIC50 = -log10(concentration in molar units)

Could you tell me which pIC50 is on file for Cn1nnc2c(C(N)=O)ncn2c1=O [TMZ, temozolomide] ?
3.50

====

# System: DAOY cells
# Measurement notes: Clonogenic survival assay
# Assay type: cell-based
# Condition: Homo sapiens, 48 h post-treatment
Assay readout: IC50 (µM)
Provide the reading as a plain figure in µM.

Could you tell me which IC50 is on file for Cn1nnc2c(C(N)=O)ncn2c1=O [TMZ, temozolomide] ?
464

====

# System: SNB19 cells
# Measurement notes: Clonogenic survival assay
# Assay type: cell-based
# Condition: Homo sapiens, SNB-19; SNB19, 48 h post-treatment
# Method: Cells collected from the growth assay (48 h time point) were counted and plated at low-density, in triplicate, and incubated at 37 °C, 5% CO2, undisturbed, for colony formation. After 12 days (21 days for KNS42), colonies were fixed (50% methanol in PBS), stained (0.5% crystal violet solution) and counted manually. Any cluster of cells greater than 50 in number was counted as a surviving colony. […]
Assay readout: pIC50
# pIC50 = -log10(concentration in molar units)

Could you tell me which pIC50 is on file for Cn1nnc2c(C(N)=O)ncn2c1=O [TMZ, temozolomide] ?
4.20

====

# System: KNS42 cells
# Measurement notes: Growth assay (cell counts)
# Format: cell-based
# Condition: Homo sapiens, KNS-42; KNS42, 72 h, 2D normoxia
Assay readout: IC50 (µM)
Provide the reading as a plain figure in µM.

Could you tell me which IC50 is on file for Cn1nnc2c(C(N)=O)ncn2c1=O [TMZ, temozolomide] ?
731
